Data origin, for the record: the supplement of paper PMC11908140

So I've got a bunch of variants here, and I need their 8OG:A repair function score values.
B1: library; numbered along this chain (parent)
chain: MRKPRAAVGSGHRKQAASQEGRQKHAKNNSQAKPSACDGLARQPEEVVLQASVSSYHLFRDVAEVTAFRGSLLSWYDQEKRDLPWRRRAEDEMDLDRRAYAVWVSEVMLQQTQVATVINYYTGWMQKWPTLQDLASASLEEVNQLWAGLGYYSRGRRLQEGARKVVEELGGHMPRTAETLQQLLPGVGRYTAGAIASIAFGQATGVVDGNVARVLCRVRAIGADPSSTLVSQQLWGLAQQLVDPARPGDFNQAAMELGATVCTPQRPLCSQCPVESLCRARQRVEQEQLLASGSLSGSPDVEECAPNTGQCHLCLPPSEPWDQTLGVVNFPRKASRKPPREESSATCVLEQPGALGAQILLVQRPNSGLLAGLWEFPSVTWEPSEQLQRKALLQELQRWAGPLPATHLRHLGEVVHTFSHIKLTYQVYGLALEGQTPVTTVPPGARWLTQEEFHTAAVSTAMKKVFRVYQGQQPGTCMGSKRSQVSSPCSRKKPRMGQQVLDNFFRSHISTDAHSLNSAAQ

# Variants of: B1
# assay-name: 8OG:A repair function score (normalized; synonymous = 0, nonsense = -1) (normalized log-likelihood score); higher = more repair activity (WT-like);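 note: cells sorted at 72 h after reporter transfection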
# condition-notes: with 8OG:A DNA repair reporter (GFP) in HEK-293 MUTYH KO cells
Form: value (number only, do not type unit).

Exam item: # input variant: `A36W` ; wanted: its 8OG:A repair function score
Marked response: -0.0681

Exam item: Try `A345K` next.
Marked response: -0.499

Exam item: Try `W235R` next.
Marked response: -0.496
